Recorded pIC50 for the following compounds
Tested on: Aβ40 in conditioned medium of cells stably expressing Amyloid Precursor Protein (APP) (HEK cell)
Assay: In vitro BACE cell-based assay (HEK cell assay, Aβ40 sandwich ELISA)
Settings: Homo sapiens, HEK293; IC50 range class; inhibition of Aβ40 after 24 h incubation
pIC50: −log10 of the molar value.

COMPOUND: Cc1cccnc1-c1ccc2nc(N)c(CCc3cc(CC(C)(C)C)ncn3)cc2c1 [Example 6]
VALUE: 5.30 to 6.00

COMPOUND: Cc1ccccc1-c1ccc2nc(N)c(CCc3cncc(C4CCCCO4)c3)cc2c1 (centres unmarked) [Example 31]
VALUE: 5.30 to 6.00

COMPOUND: Cc1cccc(C(=O)N2CCCC2)c1-c1ccc2nc(N)c(CCc3cncnc3)cc2c1 [Example 33]
VALUE: > 6.30

COMPOUND: Cc1cccnc1-c1ccc2nc(N)c(CCc3cc(C(C)(C)C)ncn3)cc2c1 [Example 16]
VALUE: 5.30 to 6.00

COMPOUND: Cc1ccccc1-c1ccc2nc(N)c(CCc3cnn(Cc4ccccc4)c3)cc2c1 [Example 19]
VALUE: 5.30 to 6.00

[ask] Give the measured pIC50 for Cc1ccccc1-c1ccc2nc(N)c(CCc3cc4ccccc4[nH]3)cc2c1 [Example 17]
[reply] 6.00 to 6.30

[ask] Give the measured pIC50 for Cc1ccccc1-c1ccc2nc(N)c(CC(C)c3cncc(C4CCCCO4)c3)cc2c1 (centres unmarked) [Example 26]
[reply] 5.30 to 6.00

[ask] Give the measured pIC50 for Cc1ccccc1-c1ccc2nc(N)c(CCc3cnn(C4CCCCC4)c3)cc2c1 [Example 25]
[reply] 5.30 to 6.00

[ask] Give the measured pIC50 for Cc1ccccc1-c1ccc2nc(N)c(C3OCCCC3c3cc(CC(C)(C)C)ncn3)cc2c1 (single isomer, unassigned) [Example 7]
[reply] 5.30 to 6.00

[ask] Give the measured pIC50 for Cc1ccccc1-c1ccc2nc(N)c(CCc3cnco3)cc2c1 [Example 28]
[reply] < 5.30

[ask] Give the measured pIC50 for Cc1ccccc1-c1ccc2nc(N)c(CC(C)c3cc(CC(C)(C)C)ncn3)cc2c1 (centres unmarked) [Example 9]
[reply] 6.00 to 6.30

[ask] Give the measured pIC50 for Cc1ccccc1-c1ccc2nc(N)c(CCc3cncc(CCC(C)(C)C)c3)cc2c1 [Example 22]
[reply] < 5.30

[ask] Give the measured pIC50 for CCc1cc(C(C)Cc2cc3cc(-c4ccccc4C)ccc3nc2N)ncn1 (centres unmarked) [Example 10]
[reply] 5.30 to 6.00

[ask] Give the measured pIC50 for Cc1ccccc1-c1ccc2nc(N)c(C3CCCC3c3cc(C4CCCC4)ncn3)cc2c1 (centres unmarked) [Example 1]
[reply] < 5.30

[ask] Give the measured pIC50 for CCc1cncc(CCc2cc3cc(-c4ccccc4C)ccc3nc2N)c1 [Example 5]
[reply] 5.30 to 6.00

[ask] Give the measured pIC50 for Cc1ccccc1-c1ccc2nc(N)c(CC(C)c3cncc(C4CCCC4)c3)cc2c1 (centres unmarked) [Example 30]
[reply] 5.30 to 6.00

[ask] Give the measured pIC50 for Cc1cccnc1-c1ccc2nc(N)c(CC(C)c3cc(CC(C)(C)C)ncn3)cc2c1 (centres unmarked) [Example 15]
[reply] 6.00 to 6.30

The measurements presented in this section are drawn from patent US8822485B2.
